Biological target: T1, LIN7C, Q9NUP9
T1 sequence (Q9NUP9 88-185, limits assumed, looked up): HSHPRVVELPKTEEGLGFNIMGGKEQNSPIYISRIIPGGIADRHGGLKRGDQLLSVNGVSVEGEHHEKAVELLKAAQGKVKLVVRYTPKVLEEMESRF
Assay: holdup assay
Parameters: key: below the threshold = too weak to quantify, mostly under pKd 3.1 to 4
Conditions: plain residues with an end cap or a label only (N-terminal biotin on a linker: ado-ado)
Threshold check on pKd: at or above 4 gives true (1), strictly below gives false (0).

GTMFLRETSL [GUCY1A2, P33402] :: true (1)
TNSKQGETTV [FZD1, Q9UP38] :: true (1)
NKSEPFLTWL [WWTR1, Q9GZV5] :: false (0)
AKADAQESRL [PLCB2, Q00722] :: true (1)
QKNKDREYYV [NRXN3, Q9HDB5] :: false (0)
SRPHTNETSL [MCC, P23508] :: false (0)
